Let's look at some compounds and their measured relative viability.
tested on: UMC-11; assay: relative viability (nuclei count vs DMSO), 5 days (fraction); higher = more cells survive; settings: first compound 0.1 µM
Enter the number alone.

input: Send back UMC-11 relative viability of Cc1cn(-c2cc(NC(=O)c3ccc(C)c(Nc4nccc(-c5cccnc5)n4)c3)cc(C(F)(F)F)c2)cn1 [Nilotinib] + CCNC(=O)c1noc(-c2cc(C(C)C)c(O)cc2O)c1-c1ccc(CN2CCOCC2)cc1 [Luminespib] (partner 0.01 µM) only.
output: 1.39

input: Send back UMC-11 relative viability of Cc1cn(-c2cc(NC(=O)c3ccc(C)c(Nc4nccc(-c5cccnc5)n4)c3)cc(C(F)(F)F)c2)cn1 [Nilotinib] + COc1cccc2cc(-c3nc([C@H]4CC[C@H](C(=O)O)CC4)n4ncnc(N)c34)[nH]c12 [OSI-027] (partner 0.5 µM) only.
output: 0.246
